System: NCI-H522
assay_explanation: NCI tumour cell line growth inhibition, 48 h
Calls of active or inactive are those of the source. Rule as the data show it: active = GI50 up to about 1.1 µM and inactive = higher.
I would appreciate it if you answered using one of these outcomes: 1 (yes) for active, 0 (no) for inactive

Here's what some known entries look like.
compound | answer_label
CCO/C([O-])=C(\C(=O)c1ccccc1)[n+]1c(C)n(C)c2ccccc21 | 0 (no)
CCOc1ccc(/C(C=O)=C(\Cl)c2ccc(OC)c(OC)c2)cc1 | 0 (no)

Which outcome was assigned to CSC(SC)=C1Sc2cccc(Cl)c2S1 in this test?
0 (no)

Which outcome was assigned to COc1ccc(/C(Br)=C2\OC(=O)c3ccccc32)cc1 in this test?
0 (no)

Which outcome was assigned to Nc1nc(N)c2nc(CNc3ccc(C(=O)NC(CCNC(=O)c4ccccc4C(=O)O)C(=O)O)cc3)cnc2n1 (stereo unspecified) in this test?
1 (yes)

Which outcome was assigned to NCC1OC(n2cnc3c(=O)[nH]c(N)nc32)C(O)C1O (stereo unspecified) in this test?
0 (no)

###

Tested on: SF-268
assay_explanation: NCI tumour cell line growth inhibition, 48 h
Active and inactive are the calls of the source. Rule as the data show it: active = GI50 up to about 1.1 µM and inactive = higher.
recorded_metric: GI50

compound | GI50
O=P1(NCCCl)OCCC(OO)N1CCCl (stereo not drawn) | 35.2 µM (inactive)
COC(=O)c1c(C)cccc1/C=C1/Cc2c(C)cccc2C1=O | > 100 µM (inactive)

# evaluate next
Measured GI50, C#C[C@]1(O)CCC2C3CCc4cc(Oc5nc(F)nc(-c6c7cc8ccccc8cc7c7n6CCS7)n5)ccc4C3CCC21C (stereo partly drawn) : 56.9 µM (inactive)

###

System: SNB-19
assay_explanation: NCI tumour cell line growth inhibition, 48 h
Active and inactive are the calls of the source. Rule as the data show it: active = GI50 up to about 1.1 µM and inactive = higher.
I would appreciate it if you answered using one of these outcomes: T for active, F for inactive

compound | answer_label
CCCCCC(=O)N[C@H]1CCc2cc(OC)c(OC)c(OC)c2-c2ccc(SC)c(=O)cc21 | T

Which outcome was assigned to O=C(COc1ccc(OCC(=O)N2C(=O)CS/C2=N\c2ccccc2)cc1)N1C(=O)CS/C1=N\c1ccccc1 in this test?
F

Which outcome was assigned to NC(=O)C1CCCNC1 (centres undefined) in this test?
F

Which outcome was assigned to O=c1c2nn3c(=O)n(-c4ccccc4)c(=O)c3nn2c(=O)n1-c1ccccc1 in this test?
F

Which outcome was assigned to C/C1=C\[C@H](C)C[C@H](C)OC(=O)C[C@H](c2ccc(O)cc2)NC(=O)[C@H](Cc2ccc(O)c(I)c2)N(C)C(=O)[C@H](C)NC(=O)[C@@H](C)C1 in this test?
T

Which outcome was assigned to CCCCCC(C[N+]1(C)CCOCC1)C(=O)/C=C/c1ccccc1 (centres undefined) in this test?
F

Which outcome was assigned to CN(C)CCCc1c2ccccc2nc2ccc(Cl)cc12 in this test?
F

Which outcome was assigned to C[Si](C)(C)OC1CC(=O)OC1n1cc(F)c(=O)[nH]c1=O (centres undefined) in this test?
F

Which outcome was assigned to CC(=O)[O-].[O-]c1c(Cl)cc(Cl)cc1/C=N/Nc1ccccn1.[Zn+2] in this test?
F

Which outcome was assigned to CCOC(=O)c1ccc(-c2cccs2)n1C in this test?
F

Which outcome was assigned to CC(=O)NCCSC(=O)c1ccccc1 in this test?
T

Which outcome was assigned to COC(=O)[C@@H]1C[C@@]23CCCN4CC[C@@]5(c6cccc(OC)c6N(C=O)[C@]15CC2)[C@@H]43 in this test?
F

Which outcome was assigned to C/C(=C\c1ccccc1)C(O)S(=O)(=O)O (centres undefined) in this test?
F

Which outcome was assigned to C=C(C(=O)OC1C(CO)OC(OCC2CC[C@@H]3C[C@]4(OC(=O)C3=C)C(C)=CC(=O)C24)C(O)C1O)[C@@H]1CCC(CO)C2C(=O)C=C(C)[C@@]2(O)C1 (some centres undefined) in this test?
F

###

Test system: MCF7
assay_explanation: NCI tumour cell line growth inhibition, 48 h
Activity calls are given as the source filed them. No stated cut-off is given here; in the data, active = GI50 up to about 1.1 µM and inactive = higher.
recorded_metric: GI50

Please review the following examples before continuing.
compound | value_measured
O=[N+]([O-])c1cccc2nc3ccccc3c(NCCCn3ccnc3[N+](=O)[O-])c12 | < 0.0001 µM (active)
CO[C@H]1[C@H](O)[C@H](O[C@H]2CC[C@@]3(C)[C@H](CC[C@@H]4[C@@H]3CC[C@]3(C)[C@@H](C5=CC(=O)OC5)CC[C@]43O)C2)O[C@@H](C)[C@@H]1O | 0.00076 µM (active)

Measured GI50, O=c1[nH]c2ccc(C(F)(F)F)cc2nc1C(F)(F)F : 23 µM (inactive)

Measured GI50, COc1cc(/C=C/c2nc(N)nnc2C)cc(OC)c1OC : 4.8 µM (inactive)

Measured GI50, C[C@H]1C(=O)O[C@@H]1[C@H]1COC(C)(C)O1 : > 100 µM (inactive)

Measured GI50, S=C1Cc2c(-c3ccc(Cl)cc3)cc(-c3ccccc3)nc2-c2ccccc2N1 : 17.1 µM (inactive)

Measured GI50, CCSc1nc(-c2cccs2)nc2ccc(I)cc12 : 13.1 µM (inactive)

Measured GI50, Cc1ccc(/N=N/c2c(O)c(C(=O)O)cc3ccccc23)cc1C : > 100 µM (inactive)

Measured GI50, Fc1ccc(N2C(=S)SC(=N\c3ccccc3)/C2=N/c2ccccc2)cc1 : > 73.8 µM (inactive)

Measured GI50, CCOC(=O)Cn1nnc2cc(Nc3nc4ccccc4nc3C(=O)OCC)ccc21 : > 100 µM (inactive)

Measured GI50, O=C1CC[C@@]2(O)[C@H]3Cc4ccc(-c5ccccc5)c5c4[C@@]2(CCN3CC2CC2)[C@H]1O5 : 18.2 µM (inactive)

Measured GI50, ClCc1nn(-c2ccccc2)c(CCl)c1CCl : 2.38 µM (inactive)

Measured GI50, C=CC1(C)CCC2C(=CCC3C(C)(COC4OC(C(=O)O)C(O)C(O)C4O)C(O)CCC23C)C1.C=CC1(C)CCC2C(=CCC3C2(C)CC(O)C(O)C3(C)COC2OC(C(=O)O)C(O)C(O)C2O)C1 (stereo not drawn) : 71 µM (inactive)

###

Test system: SK-MEL-2
assay_explanation: NCI tumour cell line growth inhibition, 48 h
Active and inactive are the calls of the source. Rule as the data show it: active = GI50 up to about 1.1 µM and inactive = higher.
I would appreciate it if you answered using one of these outcomes: active, inactive

Here's what some known entries look like.
compound | answer_label
CC(=O)C(=[N+]=[N-])C(=O)NCC#N | inactive
C/C(=N\Nc1nc2ccccc2[nH]1)c1ncccn1 | inactive
Nc1nc(O)c(Br)c(-c2cccc([N+](=O)[O-])c2)n1 | inactive
COc1cc2nc3n(c(=O)c2cc1OC)-c1ccc([N+](=O)[O-])cc1C3=O | inactive

Which outcome was assigned to CC(=O)Nc1ccc(-c2nnc(SCC(=O)Nc3ccc(Cl)cc3)o2)cc1 in this test?
inactive

Which outcome was assigned to Cc1nc2c(n1CCN(C)C)C(=O)c1ccccc1C2=O in this test?
inactive

Which outcome was assigned to COC(=O)c1c(C)cccc1CC1Cc2c(C)cccc2C1=O (centres undefined) in this test?
inactive

###

System: HL-60
assay_explanation: NCI tumour cell line growth inhibition, 48 h
Active and inactive are the calls of the source. Cut-off read from the data, not from the text of the source: active = GI50 up to about 1.1 µM and inactive = higher.
I would appreciate it if you answered using one of these outcomes: T = active, F = inactive

compound | target_or_system | answer_label
CN1C(OCc2ccccc2)c2c(ccc3c2OCO3)C2C=Cc3cc4c(cc3C21)OCO4 (configuration not stated) | HL-60 | T
ClCCCc1ccccc1C1=NCCc2ccccc21 | HL-60 | F
C#CC[C@@H]1C(=O)N(Cc2ccc(OC)cc2)[C@@H](C(C)C)C(=O)N1Cc1ccc(OC)cc1 | HL-60 | F
Nc1cc(N2CCOCC2)nc(=O)n1-c1ccccc1 | HL-60 | F
CC1CCC(C(C)(C)c2ccccc2)C(=O)C1 (configuration not stated) | HL-60 | F
CC1=CC(c2ccccc2)OP1(=O)c1ccccc1 (configuration not stated) | HL-60 | F

Please examine the following record next.
Which outcome was assigned to CCN(CCCl)c1cc(CN(C)C)cc(NC(=O)C23CCC(C(=O)Nc4cc(CN(C)C)cc(N(CC)CCCl)c4)(CC2)CC3)c1 in this test?
T

###

Test system: MDA-N
assay_explanation: NCI tumour cell line growth inhibition, 48 h
Calls of active or inactive are those of the source. No stated cut-off is given here; in the data, active = GI50 up to about 1.1 µM and inactive = higher.
recorded_metric: GI50

molecule | value_measured
SC1=NC2=C(CSC/C2=C\c2ccccc2)C(c2ccccc2)N1 (stereo not given) | 31.3 µM (inactive)
COc1cc([C@@H]2c3cc4c(cc3[C@@H](NC(=O)NO)[C@H]3COC(=O)[C@H]23)OCO4)cc(OC)c1O | 2.15 µM (inactive)
CN(C)Cc1cc(C(C)(C)C)cc(CN(C)C)c1O | > 100 µM (inactive)
CCN(CC)c1nc(N(C)C)c2cc(OC)ccc2n1 | 24.7 µM (inactive)

The molecule O=C1OC2C(O)C(=O)OC2C1O (stereo not given) on MDA-N: GI50 was > 100 µM (inactive)

Taken from ChEMBL document CHEMBL1201862.
